# EC50 values compiled below
- TARGET_ENTITY: Peroxisome proliferator-activated receptor alpha (Homo sapiens)
- Sequence (Q07869 whole entry): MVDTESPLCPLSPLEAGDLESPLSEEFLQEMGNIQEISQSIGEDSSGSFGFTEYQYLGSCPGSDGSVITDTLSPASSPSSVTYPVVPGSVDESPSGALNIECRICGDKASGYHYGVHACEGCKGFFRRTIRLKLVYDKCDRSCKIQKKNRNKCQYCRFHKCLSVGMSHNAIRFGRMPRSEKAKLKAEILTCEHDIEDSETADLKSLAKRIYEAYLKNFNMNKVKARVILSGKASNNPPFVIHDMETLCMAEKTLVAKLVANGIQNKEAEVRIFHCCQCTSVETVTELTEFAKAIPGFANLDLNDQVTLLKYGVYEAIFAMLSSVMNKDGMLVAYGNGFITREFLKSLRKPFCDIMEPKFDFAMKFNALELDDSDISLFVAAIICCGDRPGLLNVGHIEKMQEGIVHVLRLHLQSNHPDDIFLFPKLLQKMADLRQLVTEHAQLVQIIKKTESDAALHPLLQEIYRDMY
- TEST_NAME: Transactivation of human GAL4-fused PPARalpha LBD expressed in African green monkey COS7 cells co-expressing 5Gal4 pGL3 TK Luc after overnight incubation by luciferase reporter gene assay
- Assay type: cell-based

>  <SAMPLE_SMILES>
O=C(O)CCCc1cc2cc(Cl)ccc2n1S(=O)(=O)c1cccc2ccccc12

>  <UNIT_DESCRIPTOR>
nM

>  <CENSORING_SIGN>
=

>  <EC50>
901

$$$$
>  <SAMPLE_SMILES>
O=C(O)CCCc1cc2cc(Cl)ccc2n1S(=O)(=O)c1ccccc1

>  <UNIT_DESCRIPTOR>
nM

>  <CENSORING_SIGN>
=

>  <EC50>
956

$$$$
>  <SAMPLE_SMILES>
O=C(O)CCCc1cc2cc(Cl)ccc2n1S(=O)(=O)c1ccc2nsnc2c1

>  <UNIT_DESCRIPTOR>
nM

>  <CENSORING_SIGN>
>

>  <EC50>
5000

$$$$
>  <SAMPLE_SMILES>
O=C(O)CCc1cc2cc(Cl)ccc2n1S(=O)(=O)c1ccccc1

>  <UNIT_DESCRIPTOR>
nM

>  <CENSORING_SIGN>
=

>  <EC50>
260

$$$$
>  <SAMPLE_SMILES>
O=C(O)CCCc1cc2cc(Cl)ccc2n1S(=O)(=O)c1ccc2c(c1)OCO2

>  <UNIT_DESCRIPTOR>
nM

>  <CENSORING_SIGN>
=

>  <EC50>
790

$$$$
>  <SAMPLE_SMILES>
COc1ccc(S(=O)(=O)n2c(CCCC(=O)O)cc3cc(Cl)ccc32)cc1

>  <UNIT_DESCRIPTOR>
nM

>  <CENSORING_SIGN>
=

>  <EC50>
419

$$$$
>  <SAMPLE_SMILES>
Cc1ccc(S(=O)(=O)n2c(CCCC(=O)O)cc3cc(Cl)ccc32)cc1

>  <UNIT_DESCRIPTOR>
nM

>  <CENSORING_SIGN>
>

>  <EC50>
5000

$$$$
>  <SAMPLE_SMILES>
COc1cccc(S(=O)(=O)n2c(CCCC(=O)O)cc3cc(Cl)ccc32)c1

>  <UNIT_DESCRIPTOR>
nM

>  <CENSORING_SIGN>
=

>  <EC50>
305

$$$$
>  <SAMPLE_SMILES>
Nc1nc2ccc(S(=O)(=O)n3c(CCCC(=O)O)cc4cc(Cl)ccc43)cc2o1

>  <UNIT_DESCRIPTOR>
nM

>  <CENSORING_SIGN>
>

>  <EC50>
5000

$$$$
>  <SAMPLE_SMILES>
O=C(O)CCCc1cc2cc(C(F)(F)F)ccc2n1S(=O)(=O)c1ccc(OC(F)(F)F)cc1

>  <UNIT_DESCRIPTOR>
nM

>  <CENSORING_SIGN>
=

>  <EC50>
1960

$$$$
>  <SAMPLE_SMILES>
Cc1cccc(S(=O)(=O)n2c(CCCC(=O)O)cc3cc(Cl)ccc32)c1

>  <UNIT_DESCRIPTOR>
nM

>  <CENSORING_SIGN>
=

>  <EC50>
1250

$$$$
>  <SAMPLE_SMILES>
Cc1ccc2c(c1)cc(CCCC(=O)O)n2S(=O)(=O)c1ccccc1

>  <UNIT_DESCRIPTOR>
nM

>  <CENSORING_SIGN>
=

>  <EC50>
1300

$$$$
>  <SAMPLE_SMILES>
O=C(O)CCCc1cc2cc(C(F)(F)F)ccc2n1S(=O)(=O)c1ccccc1Cl

>  <UNIT_DESCRIPTOR>
nM

>  <CENSORING_SIGN>
>

>  <EC50>
5000

$$$$
>  <SAMPLE_SMILES>
COc1ccccc1S(=O)(=O)n1c(CCCC(=O)O)cc2cc(C(F)(F)F)ccc21

>  <UNIT_DESCRIPTOR>
nM

>  <CENSORING_SIGN>
>

>  <EC50>
5000

$$$$
>  <SAMPLE_SMILES>
CN1CCOc2ccc(S(=O)(=O)n3c(CCCC(=O)O)cc4cc(Cl)ccc43)cc21

>  <UNIT_DESCRIPTOR>
nM

>  <CENSORING_SIGN>
=

>  <EC50>
410

$$$$
>  <SAMPLE_SMILES>
Nc1nc2ccc(S(=O)(=O)n3c(CCCC(=O)O)cc4cc(Cl)ccc43)cc2s1

>  <UNIT_DESCRIPTOR>
nM

>  <CENSORING_SIGN>
=

>  <EC50>
1260

$$$$
>  <SAMPLE_SMILES>
O=C(O)CCCc1cc2cc(C(F)(F)F)ccc2n1S(=O)(=O)c1cccc(Cl)c1

>  <UNIT_DESCRIPTOR>
nM

>  <CENSORING_SIGN>
=

>  <EC50>
2420

$$$$
